# Test system: amyloid peptide 1-40 release
# protocol.text: Test 4: Inhibition of Cellular Release of Amyloid Peptide 1-40
# Type: cell-based
# particulars: Cricetulus griseus; Chinese hamster ovary cells transfected with the human gene for amyloid precursor protein, 24 hours; read-out: Amyloid-β1-40 release IC50
pIC50: −log10 of the molar value. Counter-ions that a name gives are not always drawn.
value.kind: pIC50

| compound | recorded.result |
| --- | --- |
| C[C@@]1(c2nc(Nc3ncccc3C#N)ccc2F)CO[C@@](C)(C(F)(F)F)C(N)=N1 | 6.82 |

1: COCCOc1cnc2c(Nc3ccc(F)c([C@]4(C(F)F)COCC(N)=N4)c3)nccc2c1
2: COc1cccnc1Nc1ccc(F)c([C@]2(C)CO[C@@](C)(C(F)(F)F)C(N)=N2)c1
3: CC1(c2cccc(Nc3noc4ccccc34)c2)COCC(N)=N1 (stereo not drawn)
4: Cn1nc(Nc2cccc(C3(C)COCC(N)=N3)c2)c2ccc(Br)cc21 (stereo not drawn)
5: COc1cc(N)cnc1Nc1ccc(F)c([C@]2(C(F)F)COCC(N)=N2)c1
Sort the 5 compounds by pIC50; largest first, smallest last. Answer by listing the labels in the requested order. 1, 2, 5, 4, 3
(1: 7.62, 2: 6.66, 5: 5.70, 4: 5.46, 3: 5.15)

A: NC1=N[C@@](c2cc(Nc3ncccn3)ccc2F)(C(F)F)COC1
B: CC1(c2cc(NCc3ccco3)ccc2F)COCC(N)=N1 (stereo not drawn)
Between A and B , which one shows the larger pIC50 value? Bench note: the answer is the label of the chosen record. B
(B: 6.42, A: 5.64)

A: COc1ccnc(Nc2ccc(F)c([C@]3(C(F)F)COCC(N)=N3)c2)n1
B: NC1=N[C@@](c2cc(Nc3ncnc4cc(Cl)cnc34)ccc2F)(C(F)F)COC1 [Example 7, di-hydrochloride]
Between A and B , which one shows the larger pIC50 value? Bench note: the answer is the label of the chosen record. B

###

# target.of.assay: human BACE-2 (Homo sapiens (Human))
# Sequence (Q9Y5Z0 63-473): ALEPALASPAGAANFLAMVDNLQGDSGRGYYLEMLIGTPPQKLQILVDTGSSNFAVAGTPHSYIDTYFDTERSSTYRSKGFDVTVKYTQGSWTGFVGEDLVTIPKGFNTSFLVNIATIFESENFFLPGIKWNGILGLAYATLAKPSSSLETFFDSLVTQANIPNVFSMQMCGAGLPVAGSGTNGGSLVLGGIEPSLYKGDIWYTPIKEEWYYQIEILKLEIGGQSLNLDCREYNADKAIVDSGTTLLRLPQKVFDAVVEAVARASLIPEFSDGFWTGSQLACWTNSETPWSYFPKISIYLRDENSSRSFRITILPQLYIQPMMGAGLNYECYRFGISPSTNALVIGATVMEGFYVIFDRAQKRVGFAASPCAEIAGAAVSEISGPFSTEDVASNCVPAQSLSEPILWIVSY
# protocol.text: Test 2: Inhibition of Human BACE-2
# particulars: recombinant BACE-2, pH 4.5, fluorescence-quenched substrate
pIC50: −log10 of the molar value. Where a name gives a salt, the structure may show the parent alone.
value.kind: pIC50

Before answering, review these 3 worked examples.
| compound | value.kind | recorded.result |
| --- | --- | --- |
| N#Cc1cnc2c(Nc3ccc(F)c([C@]4(C(F)F)COCC(N)=N4)c3)nccc2c1 [Example 9] | pIC50 | 7.52 |
| COc1cc(N)cnc1Nc1ccc(F)c([C@]2(C(F)F)COCC(N)=N2)c1 [Example 27] | pIC50 | 6.18 |
| COc1cncnc1Nc1ccc(F)c([C@]2(C(F)F)COCC(N)=N2)c1 [Example 21] | pIC50 | 6.25 |

I: NC1=N[C@@](c2cc(Nc3nccc4cc(OCCCl)cnc34)ccc2F)(C(F)F)COC1 [Example 11]
II: COc1cc([N+](=O)[O-])cnc1Nc1ccc(F)c([C@]2(C(F)F)COCC(N)=N2)c1 [Example 26]
III: CC1(c2cccc(Nc3noc4ccccc34)c2)COCC(N)=N1 (centres unmarked) [Example 3]
IV: C[C@@]1(c2cc(Nc3ncnc4cc(Cl)cnc34)ccc2F)CO[C@@](C)(C(F)(F)F)C(N)=N1 [Example 23, di-hydrochloride]
Please put the entries in order of rising pIC50. Answer by listing the labels in the requested order. I, III, II, IV
